system: 3LL cell line; test: In vivo anti-tumor and anti-metastatic activity was measured after oral dosing 15 mg/kg b.i.d. to B6D2F1 mice bearing metastatic 3LL Lewis lung tumor; format: functional; conditions: Mus musculus
Assignment: determine reported inhibition in vivo at 15 mg/kg for the given molecules.
The answer is to be given in %; state only the numeric part.

Bench note, 3LL cell line: FC(F)(F)c1cccc(N2CCN(C3CCN(c4ccc(-c5ncns5)nn4)CC3)CC2)c1 , inhibition in vivo at 15 mg/kg reads 54

Bench note, 3LL cell line: CN(C)c1nsc(-c2ccc(N3CCN(c4ccccc4)CC3)nn2)n1 , inhibition in vivo at 15 mg/kg reads 13

Bench note, 3LL cell line: FC(F)(F)c1cccc(NC2CCN(c3ccc(-c4ncns4)nn3)CC2)c1 , inhibition in vivo at 15 mg/kg reads 42

Bench note, 3LL cell line: CN(C)c1nsc(-c2ccc(N3CCN(c4cccc(C(F)(F)F)c4)CC3)nn2)n1 , inhibition in vivo at 15 mg/kg reads 39

Bench note, 3LL cell line: CN(C)c1nsc(-c2ccc(N3CCC(N4CCN(c5cccc(C(F)(F)F)c5)CC4)CC3)nn2)n1 , inhibition in vivo at 15 mg/kg reads 25
